molecular target: PIM1 transgenic cells (Ba/F3) (Homo sapiens, UniProt P11309); test: Proliferation inhibitory effect on PIM1 transgenic cells; type: cell-based, mouse; conditions: proliferation inhibition, 72 hours, Cell Counting Kit-8, read-out: PIM1 IC50
Sequence (P11309 whole entry, change not shown): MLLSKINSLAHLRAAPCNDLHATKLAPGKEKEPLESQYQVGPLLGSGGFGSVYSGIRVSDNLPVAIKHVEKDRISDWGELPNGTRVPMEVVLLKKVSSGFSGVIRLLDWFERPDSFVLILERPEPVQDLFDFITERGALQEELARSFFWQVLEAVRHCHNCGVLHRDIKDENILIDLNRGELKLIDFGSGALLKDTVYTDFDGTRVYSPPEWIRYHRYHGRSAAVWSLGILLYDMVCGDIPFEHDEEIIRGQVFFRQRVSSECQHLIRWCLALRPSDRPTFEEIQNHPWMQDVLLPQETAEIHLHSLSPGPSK
Structures can show the parent of a compound that is named as a salt.
MEASUREMENT_LABEL: GI50 (nM)
Number in nM, nothing else.

Use the examples below as a reference point.
Prompt: What value of measured GI50 is listed for O=c1[nH]nc(-c2ccc(C(F)(F)F)c(N[C@@H](CF)C3CCNCC3)c2)o1 [Example 152, hydrochloride] ?
Response: 57

Prompt: Can you check C[C@H](Nc1cc(-c2n[nH]c(=O)o2)ccc1C(F)(F)F)C1CC2(CNC2)C1 [Example 149, trifluoroacetate] next?
Response: 380

---
Prompt: What value of GI50 has been reported for the following compound? N[C@@H]1CCCN(CCNc2cc(-c3n[nH]c(=O)o3)ccc2C(F)(F)F)C1 [Example 72, dihydrochloride]
Response: 920

---

biological target: PIM1 serine/threonine kinase (Homo sapiens); experiment: PIM1 serine/threonine kinase inhibitory effect; conditions: PIM1 serine/threonine kinase activity; ATP 40 μM; 30° C., 30 minutes
Sequence (P11309 whole entry): as the sequence (P11309 whole entry, change not shown) above
Structures can show the parent of a compound that is named as a salt.
Returns the class for an entry based on its IC50. Class ranges: bottom end = under 3 nM, midrange = from 3 nM up to 4 nM, top end = 4 nM and over

Example results:
Prompt: Input C[C@H](Nc1cc(-c2n[nH]c(=O)o2)ccc1Cl)[C@H]1CC[C@H](N)CC1 [Example 148, hydrochloride] ; output its category
Response: midrange

Prompt: Next up: C[C@@H]([C@H]1CC[C@H](N)CC1)N1CCOc2c(F)cc(-c3n[nH]c(=O)o3)cc21 [Example 249]
Response: top end

Prompt: // next record CC[C@H](Nc1cc(-c2n[nH]c(=O)o2)cc(F)c1Cl)C1CCNCC1 [Example 139, hydrochloride]
Response: bottom end

Prompt: Item: C[C@H](Nc1cc(-c2n[nH]c(=O)o2)c(Cl)cc1Cl)C1CCNCC1 [Example 96, hydrochloride]
Response: top end

Prompt: Do the same for CC(N)[C@H]1CC[C@H](Nc2cc(-c3n[nH]c(=O)o3)ccc2C(F)(F)F)CC1 (stereo partly drawn) [Example 39, hydrochloride] please
Response: bottom end

***
Prompt: Entry C[C@@H](C1CCNCC1)N1CCCOc2c(F)cc(-c3n[nH]c(=O)o3)cc21 [Example 254, hydrochloride] belongs to which category?
Response: top end

Prompt: Try C[C@H](Nc1cc(-c2n[nH]c(=O)o2)cc(Br)c1Cl)[C@H]1CC[C@H](N)CC1 [Example 171, dihydrochloride] next.
Response: bottom end

Prompt: For C[C@@H]1CNCC[C@@H]1[C@H](C)Nc1cc(-c2n[nH]c(=O)o2)cc(F)c1OC(F)F [Example 214] then?
Response: bottom end

Prompt: Thanks! And COc1c(F)cc(-c2n[nH]c(=O)o2)cc1N[C@@H](C)[C@H]1CC[C@H](N)CC1 [Example 167, hydrochloride] ?
Response: midrange

Prompt: Subsequent entry: C[C@H](Nc1cc(-c2n[nH]c(=O)o2)cc(F)c1Cl)[C@H]1C[C@@H](N)C1 [Example 178, hydrochloride]
Response: midrange

Prompt: And Cc1c(Cl)cc(-c2n[nH]c(=O)o2)cc1N[C@@H](C)C1CCNCC1 [Example 98, dihydrochloride] ?
Response: bottom end

Prompt: Another: C[C@@H]1CNCC[C@@H]1[C@H](C)Nc1cc(-c2n[nH]c(=O)o2)ccc1Cl [Example 221]
Response: top end

---

Overview of reported pIC50 across a group of molecules:
biological target: PIM1 serine/threonine kinase (Homo sapiens); test: PIM1 serine/threonine kinase inhibitory effect; conditions: PIM1 serine/threonine kinase activity; ATP 40 μM; 30° C., 30 minutes
Counter-ions that a name gives are not always drawn.
# pIC50 = -log10(concentration in molar units)

Consider the following illustrative entries.
Prompt: Requested read-out: pIC50. Entry: CC(Nc1cc(-c2n[nH]c(=O)o2)ccc1C(F)(F)F)C1(C)CCNCC1 (stereo not shown) [Example 115]
Response: 7.92

Prompt: Proceed to C[C@H](Nc1cc(-c2n[nH]c(=O)o2)cc(Br)c1Cl)[C@H]1C[C@@H](N)C1 [Example 182, hydrochloride]
Response: 8.77

Prompt: Try this molecule too: O=c1[nH]nc(-c2ccc(Cl)c(OC[C@H]3C[C@@H](N4CCNCC4)C3)c2)o1 [Example 242]
Response: 8.00

Prompt: Query C[C@H](Nc1cc(-c2n[nH]c(=O)o2)cc(F)c1C(F)(F)F)[C@@H]1CCNC[C@@H]1C [Example 211] next
Response: 8.31

Continue with the next molecule.
Prompt: Name the recorded pIC50 for O=c1[nH]nc(-c2ccc(C(F)(F)F)c(-c3cncc(N4CCNCC4)c3)c2)o1 [Example 25, dihydrochloride] .
Response: 6.74

---

molecular target: PIM1 serine/threonine kinase (Homo sapiens); construct: purchased Carna Bioscience, Inc; test: PIM1 serine/threonine kinase inhibitory effect; format: biochemical; conditions: PIM1 serine/threonine kinase activity; ATP 40 μM; 30° C., 30 minutes
Counter-ions that a name gives are not always drawn.
MEASUREMENT_LABEL: IC50 (nM)
Just the number please, in nM, no unit attached.

Some compounds with recorded IC50:
Prompt: Item C[C@H](Nc1cc(-c2n[nH]c(=O)o2)ccc1Br)[C@H]1CC[C@H](N)CC1 [Example 154, hydrochloride] has what recorded IC50?
Response: 2.4

Prompt: Check C=C(C)c1c(F)cc(-c2n[nH]c(=O)o2)cc1N[C@@H](C)[C@H]1CC[C@H](N)CC1 [Example 232, hydrochloride] too.
Response: 2

Prompt: Moving on to the next compound: CN(C[C@H]1CC[C@H](N)CC1)c1cc(-c2n[nH]c(=O)o2)ccc1C(F)(F)F [Example 130, hydrochloride]
Response: 19

Prompt: Queued: C[C@H](Nc1cc(-c2n[nH]c(=O)o2)cc2[nH]ncc12)C1CCNCC1 [Example 100, dihydrochloride]
Response: 1.9

***
Prompt: Which IC50 value belongs to N[C@H]1CC[C@H](COc2cc(-c3n[nH]c(=O)o3)ccc2Br)CC1 [Example 238] ?
Response: 2.5

---

biological target: PIM1 serine/threonine kinase (Homo sapiens); construct: purchased Carna Bioscience, Inc; assay: PIM1 serine/threonine kinase inhibitory effect; format: biochemical; settings: PIM1 serine/threonine kinase activity; ATP 40 μM; 30° C., 30 minutes
Counter-ions that a name gives are not always drawn.
molecules and their reported pIC50
# pIC50: negative log10 of molar concentration; output just the value

Prompt: Would you mind telling me what pIC50 value was observed for C[C@H]1CNCC[C@H]1CNc1cc(-c2n[nH]c(=O)o2)ccc1C(F)(F)F [Example 141, hydrochloride] ?
Response: 8.15

Prompt: Cool, now NCCCCCCNc1cc(-c2n[nH]c(=O)o2)ccc1C(F)(F)F
Response: 7.30

Prompt: And for O=c1[nH]nc(-c2ccc(C(F)(F)F)c(N[C@@H](CF)C3CCNCC3)c2)o1 [Example 152, hydrochloride] ?
Response: 8.48

Prompt: Queued: CC(CCCCN)Nc1cc(-c2n[nH]c(=O)o2)ccc1C(F)(F)F (stereo not drawn) [Example 5, hydrochloride]
Response: 7.96

Prompt: Now consider N[C@H]1CC[C@H](CNc2cc(-c3n[nH]c(=O)o3)ccc2C(F)(F)F)CC1 [Example 55, hydrochloride] and answer again.
Response: 9.15

---
Prompt: # lookup: pIC50 of NCC(O)C1CCN(c2cc(-c3n[nH]c(=O)o3)ccc2C(F)(F)F)CC1 (stereo not drawn) [Example 14, hydrochloride]
Response: 7.92

---

molecular target: PIM1 serine/threonine kinase (Homo sapiens); assay: PIM1 serine/threonine kinase inhibitory effect; settings: PIM1 serine/threonine kinase activity; ATP 40 μM; 30° C., 30 minutes
Where a name gives a salt, the structure may show the parent alone.
MEASUREMENT_LABEL: pIC50
In textbook form, pIC50 equals minus log to base ten of the concentration in mol/L.

Prompt: Entry under review: C[C@H](Nc1cc(-c2n[nH]c(=O)o2)ccc1C(F)F)C1CCNCC1 . Reported pIC50?
Response: 7.68

***
Prompt: Any idea what its pIC50 is? The molecule is C[C@H](Nc1cc(-c2n[nH]c(=O)o2)ccc1Br)C1CCNCC1 [Example 78, dihydrochloride]
Response: 8.48

Prompt: Again, but for C[C@H](Nc1cc(-c2n[nH]c(=O)o2)ccc1Cl)[C@@H]1C[C@H](N)C1(C)C [Example 158, hydrochloride]
Response: 8.48

Prompt: Subsequent entry: CCN[C@H]1C[C@@H]([C@H](C)Nc2cc(-c3n[nH]c(=O)o3)ccc2C(F)(F)F)C1 [Example 195, hydrochloride]
Response: 8.09

Prompt: Consider next the molecule C[C@H](Nc1cc(-c2n[nH]c(=O)o2)ccc1S(C)(=O)=O)C1CCNCC1 [Example 128, hydrochloride] in the same way.
Response: 7.09
